Origin of measurements: ChEMBL document CHEMBL2218924

ASSAYED SYSTEM: Mitogen-activated protein kinase 1 (Homo sapiens)
EXPERIMENTAL SETUP: at 1 µM
Description: Millipore: Percentage of residual kinase activity of MAPK1 at 1uM relative to control. Control inhibitor: ERK Inhibitor II at 30.0uM. Buffer: 25 mM Tris pH 7.5, 0.02 mM EGTA
Property: residual activity; scope: individual compounds
ASSAY READOUT: residual activity (%)

1) Nc1n[nH]c2nnc(-c3c(-c4ccccc4)nn4ccccc34)cc12: 68
2) O=C(Nc1cccc(Nc2nccc(Nc3cccc(C(F)(F)F)c3)n2)c1)C1CC1: 89
3) Cn1cnc2cc3c(Nc4cccc(Br)c4)ncnc3cc21: 107
4) CN(C)c1ccc(/C=C2\C(=O)Nc3ccccc32)cc1: 107
5) O=Nc1c(-c2c(O)[nH]c3ccccc23)[nH]c2ccccc12: 104
6) C[C@@H](N)[C@H]1CC[C@H](C(=O)Nc2ccncc2)CC1: 102
7) COc1cc2ncnc(N3CCN(C(=O)Nc4ccc(Oc5ccccc5)cc4)CC3)c2cc1OC: 106
8) Cn1cc(/C=C2\C(=O)Nc3ccc(S(N)(=O)=O)cc32)c2ccccc21: 106
9) CCN(CC)CCCCN1c2ccccc2Oc2ccc(Cl)cc21: 116
10) Oc1ccc(-c2nc(-c3ccc(F)cc3)c(-c3ccncc3)[nH]2)cc1: 113
11) COc1ccc(OC)c2c(=S)c3ccccc3[nH]c12: 111
12) O=c1cc(-c2cccc3c2Sc2ccccc2S3)oc(N2CCOCC2)c1: 107
13) Cc1cc(Nc2nc(-c3ccccc3)nc3ccccc23)n[nH]1: 106
14) CNc1cc2c(Nc3cccc(Br)c3)ncnc2cn1: 102
15) CC#CC(=O)Nc1cc2c(Nc3ccc(F)c(Cl)c3)ncnc2cn1: 101
16) O=C(Nc1cccc(Nc2cc(Nc3cccc(C(F)(F)F)c3)ncn2)c1)C1CC1: 102
17) Cc1cccc(-c2[nH]c(C(C)(C)C)nc2-c2ccc3c(c2)OCO3)n1: 105
18) CC[n+]1c(/C=C/N(C)c2ccccc2)n(-c2ccccc2)c2ccc(-c3nc4ccccc4s3)cc21: 105
19) CO[C@@H]1[C@H](N(C)C(=O)c2ccccc2)C[C@H]2O[C@]1(C)n1c3ccccc3c3c4c(c5c6ccccc6n2c5c31)C(=O)NC4: 101
20) CC(C)n1cnc2/c(=N/c3cccc(Cl)c3)nc(NCCO)[nH]c21: 117
21) O=[N+]([O-])c1ccc(-c2nc(-c3ccc(F)cc3)c(-c3ccncc3)[nH]2)cc1: 113
